# System: Rattus norvegicus
# Assay method text: Toxicity in CFY Sprague-Dawley rat assessed as relative liver weight at 0.25% dietary level administered for 7 days relative to control
# Type: organism-based
# Condition parameters: in vivo, po, 168 h
With a cut-off of 10%, any Activity strictly below it is called 1; any Activity meeting it or above is called 0.

Please determine if "CCOC(=O)Cc1cccc(OCc2ccccc2OC)c1" is below 10% in terms of Activity.
0

Follow-up item: "CCOC(=O)c1cccc(OCc2ccccc2)c1"
1

Next up: "O=C([O-])c1ccc(OCc2ccccc2)cc1.[K+]"
1

How about this compound: "CCOC(=O)Cc1ccc(OCc2cccc(F)c2)cc1"
0

Then "CCOC(=O)c1ccc(OCc2ccc(OC)cc2)cc1" ?
0

Would you mind doing "CCOC(=O)Cc1ccc(OCc2ccccc2)cc1" as well?
0

What about this compound? "CCOC(=O)c1ccc(OCc2cccc(OC)c2)cc1"
1

For "CCOC(=O)c1ccc(OCc2cccc([N+](=O)[O-])c2)cc1" then?
1

Then what about the compound "CCCCOC(=O)c1ccc(OCc2ccccc2)cc1" ?
1

Proceed to "COc1cc(C(C)=O)ccc1OCc1ccccc1"
0

Next record, please: "CCOC(=O)c1ccc(COc2ccc(C)cc2)cc1"
1

Now this one: "O=C(OCc1ccccc1)c1ccc(OCc2ccccc2)cc1"
1

Lookup "O=C([O-])c1ccc(OCc2ccccc2)cc1.[Na+]"
1

Try this compound next: "CCOC(=O)c1ccc(OCc2ccccc2C)cc1"
1

Field entry: "Cc1ccc(COc2ccc(C(=O)O)cc2)cc1"
0

Now consider "O=C(O)c1ccc(OCc2ccc(Cl)c(Cl)c2)cc1" .
0

Likewise for "O=C(Oc1ccccc1)c1ccc(OCc2ccccc2)cc1" ?
1

What do you have for "CCOC(=O)c1ccc(OCc2ccccc2Cl)cc1" ?
1

Now consider "CCOC(=O)c1ccc(COc2ccc(C)cc2C)cc1" .
1

Moving on to "COc1cc(C=O)ccc1OCc1ccccc1"
1

For "CCOC(=O)c1ccc(OCc2ccc(OC)c(OC)c2)cc1" then?
0

Next compound: "COC(=O)CCc1ccc(OCc2ccccc2)cc1"
0

How about "CCOC(=O)c1ccc(OCc2cccc(C)c2)cc1" ?
1

###

# Tested on: Rattus norvegicus
# Assay method text: Toxicity in CFY Sprague-Dawley rat assessed as relative liver weight at 0.25% dietary level administered for 7 days relative to control
# Type: organism-based
# Condition parameters: in vivo, po, 168 h
Endpoint label: Activity (%)
The reply should contain only the number, in %.

For the compound "NC(=O)c1ccc(OCc2ccccc2)cc1" , what Activity is on record?
13

Again, but for "CCOC(=O)CCc1ccc(OCc2cccc(OC)c2OC)cc1"
23

Please answer likewise for "O=Cc1ccc(OCc2ccc(F)cc2)cc1"
15

# iterate: "CCCCCCCCCCCCOC(=O)c1ccc(OCc2ccccc2)cc1"
6

What do you get for "O=C(c1ccc(OCc2ccccc2)cc1)N1CCCCC1" ?
2

Moving on to "CCOC(=O)c1ccc(OCc2ccc([N+](=O)[O-])cc2)cc1"
-2

Can you handle "CCOC(=O)Cc1ccc(OCc2ccc(F)cc2)cc1" next?
19

Please do the same for "CCOC(=O)c1ccc(OCc2ccccc2)cc1" as well.
8

Likewise for "CCOC(=O)CCc1ccc(OCc2ccc(F)cc2)cc1" ?
-5

"CCOC(=O)c1ccc(COc2ccc(OC)cc2)cc1" ?
-4

Then "N#Cc1ccc(OCc2ccc(F)cc2)cc1" ?
20

Likewise for "CC(=O)c1ccc(OCc2ccccc2)cc1" ?
-6

Let us now turn to "CCOC(=O)c1ccc(OCc2ccc(F)cc2)cc1"
8

###

# Test system: Rattus norvegicus
# Assay method text: Toxicity in CFY Sprague-Dawley rat assessed as relative liver weight at 0.2% dietary level administered for 7 days relative to control
# Format: organism-based
# Condition parameters: in vivo, po, 168 h
Endpoint label: Activity (%)
# value in %; strip the unit string

Could you tell me which Activity is on file for "CCOC(=O)c1ccc(OCc2ccc(C)cc2)cc1" ?
2

Also need "CCOC(=O)c1ccc(OCc2ccccc2)cc1" , thanks.
8

Same read-out for "CCOC(=O)c1ccc(OCc2ccc(Br)cc2)cc1" ?
8

Try the molecule "O=C(O)c1ccc(OCc2ccccc2)cc1"
0

Param item: "CCOC(=O)Cc1ccc(OCc2ccccc2OC)cc1"
8

###

Exercise: for every item that follows, state its recorded Activity.
# Test system: Rattus norvegicus
# Assay method text: Toxicity in CFY Sprague-Dawley rat assessed as relative liver weight at 0.25% dietary level administered for 7 days relative to control
# Format: organism-based
# Condition parameters: in vivo, po, 168 h
Hi! Could you send only the number? It should be in %, unit omitted.

Hello, I am looking for reported Activity with Rattus norvegicus for "CCOC(=O)c1ccc(COc2ccc(Br)cc2)cc1" . Could you help?
24

Then this compound: "CCCCCCCCCCOC(=O)c1ccc(OCc2ccccc2)cc1"
13

Can you check "O=C(NC1CCCCC1)c1ccc(OCc2ccccc2)cc1" next?
5

Another compound: "CCOC(=O)c1ccc(OCc2ccc(Cl)c(Cl)c2)cc1"
10

Record: "CCOC(=O)c1ccc(OCc2ccc(Cl)cc2)cc1"
6

Record: CCOC(=O)C(C)(C)Oc1ccc(Cl)cc1 [CLOFIBRATE]
32

###

# Test system: Rattus norvegicus
# Assay method text: Toxicity in CFY Sprague-Dawley rat assessed as body weight gain at 0.25% dietary level administered for 7 days relative to control
# Format: organism-based
# Condition parameters: in vivo, po, 168 h
Endpoint label: Activity (%)
Quick note: give the figure in %, leave out the unit.

# query: Activity | item "CCCc1ccc(OCc2ccccc2)c(OC)c1" | system: Rattus norvegicus
0

Another compound: "COC(=O)Cc1ccc(OCc2ccccc2)c(OC)c1"
-68

Similarly, "Cc1ccc(COc2ccc(C#N)cc2)cc1" ?
-29

Can you handle "CCOC(=O)c1ccc(COc2ccccc2)cc1" next?
8

Now give it for "CCOC(=O)c1ccc(OCc2cc(C)ccc2C)cc1" too.
-21

Now consider "CCOC(=O)c1ccc(OCc2ccc(Cl)c(Cl)c2)cc1" and answer again.
-5

And "CCOCCOC(=O)c1ccc(OCc2ccccc2)cc1" ?
10

Repeat for the following compound: "CCOC(=O)c1ccc(COc2ccc(C)cc2)cc1"
5

Again, but for "CCOC(=O)c1ccc(OCc2ccccc2C)cc1"
-23

Another compound to check: "CCOC(=O)Cc1ccc(OCc2cccc(F)c2)cc1"
-17

And "CCOC(=O)c1ccc(OCc2ccccc2)cc1" ?
1

And then "CCCc1ccc(OCc2ccc(C)cc2)c(OC)c1" , what is it?
-18

And the next one, "CCOC(=O)c1ccc(OCc2ccc(F)cc2)cc1" ?
9

###

What Activity was measured for each of the following?
# Test system: Rattus norvegicus
# Assay method text: Toxicity in CFY Sprague-Dawley rat assessed as body weight gain at 0.25% dietary level administered for 7 days relative to control
# Assay type: organism-based
# Condition parameters: in vivo, po, 168 h
Kindly answer with a numeric value in %, unit omitted.

What does the data say about its Activity? Entry: "CCOC(=O)c1ccc(OCc2ccccc2[N+](=O)[O-])cc1"
8

For "CCOC(=O)Cc1cccc(OCc2ccccc2OC)c1" then?
17

// same read-out, input: "CCOC(=O)CCc1ccc(OCc2ccc(F)cc2)cc1"
-1

Also check CCOC(=O)C(C)(C)Oc1ccc(Cl)cc1 [CLOFIBRATE]
0

Next record, please: "CCCCCCCCCCCCc1ccc(OCc2ccccc2)cc1"
9

One more compound: "O=C(OC1CCCC1)c1ccc(OCc2ccccc2)cc1"
-4

Also "COC(=O)c1ccc(OCc2ccccc2)cc1" , if possible.
-14

Check "CCOC(=O)c1ccc(COc2ccc(OC)cc2)cc1" too.
-19

Could you do the same for "CCCCCCCCCCCCNC(=O)c1ccc(OCc2ccccc2)cc1" , please?
2

Entry to check: "CCOC(=O)c1ccc(COc2ccc(Cl)cc2)cc1"
-15

Here is the next compound: "O=C([O-])c1ccc(OCc2ccccc2)cc1.[Na+]"
-13

Cool, now "CCOC(=O)c1ccc(OCc2cccc(C)c2)cc1"
-10

Queued: "CCOC(=O)c1ccc(OCc2ccccc2OC)cc1"
-10

Another compound to check: "CC(=O)c1ccc(OCc2ccccc2)cc1"
-11

Another compound to look at: "CCCCOC(=O)c1ccc(OCc2ccccc2)cc1"
-18

Queued: "CCOC(=O)CCc1ccc(OCc2cccc(OC)c2OC)cc1"
4

Would you kindly repeat that for "CCOC(=O)c1ccc(OCc2ccc(I)cc2)cc1" ?
7

Would you mind doing "O=C(O)c1ccc(OCc2ccc(F)cc2)cc1" as well?
-3

Now try "CCOC(=O)c1ccc(COc2ccc(C)cc2C)cc1" .
0

Also "CCOC(=O)c1ccc(OCc2ccc(Cl)cc2)cc1" ?
-7

Same again, this time with "CCOC(=O)c1ccc(OCc2ccc(C)cc2)cc1"
-4

Check "COc1cc(C(=O)O)ccc1OCc1ccccc1" too.
15

Can you handle "CCOC(=O)c1ccc(COc2ccc(C)c(C)c2)cc1" next?
-1

Another compound to look at: "O=C(NC1CCCCC1)c1ccc(OCc2ccccc2)cc1"
-21

// next record "CCOC(=O)Cc1ccc(OCc2ccccc2)cc1"
-23

Next compound up: "CCOC(=O)c1ccc(COc2ccc(F)cc2)cc1"
16

For "CCc1ccc(OCc2ccccc2)cc1" then?
-3

Moving on to "CC(C)OC(=O)c1ccc(OCc2ccccc2)cc1"
-4
